# test target: GIM-1 protein (Pseudomonas aeruginosa)
# Sequence (Q704V1 whole entry, the tested form may be a part): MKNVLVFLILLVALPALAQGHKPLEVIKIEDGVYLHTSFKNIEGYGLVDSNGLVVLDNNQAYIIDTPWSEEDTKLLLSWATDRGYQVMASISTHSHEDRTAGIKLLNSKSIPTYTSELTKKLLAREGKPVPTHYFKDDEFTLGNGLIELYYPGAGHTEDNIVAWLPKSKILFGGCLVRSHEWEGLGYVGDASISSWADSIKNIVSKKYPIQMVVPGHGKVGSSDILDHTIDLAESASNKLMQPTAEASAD
# experiment notes: Inhibition of Pseudomonas aeruginosa 6His-tagged GIM-1 (Q19 to D250 residues) expressed in Escherichia coli BL21 Star(DE3) pLysS using nitrocefin as substrate preincubated for 5 mins followed by substrate addition by spectrophotometric analysis
# conditions used: read-out: IC50
pIC50: −log10 of the molar value.
Label class 1 when pIC50 is at or above 5; anything below gets class 0.

INSERT INTO results (compound, test_target, assigned_class) VALUES
  ('CCOP(=O)(OCC)C(CO)CCCc1ccccc1 (configuration not stated)', 'GIM-1 protein (Pseudomonas aeruginosa)', 'class 0'),
  ('CC(=O)SCC(CCCc1ccccc1)c1nnn[nH]1 (configuration not stated)', 'GIM-1 protein (Pseudomonas aeruginosa)', 'class 0'),
  ('O=P(O)(O)C(CS)CCc1ccccc1 (configuration not stated)', 'GIM-1 protein (Pseudomonas aeruginosa)', 'class 0'),
  ('CCOP(=O)(OCC)C(CCCc1ccccc1)CSC(C)=O (configuration not stated)', 'GIM-1 protein (Pseudomonas aeruginosa)', 'class 0'),
  ('CCOP(=O)(OCC)C(CS)CCCc1ccccc1 (configuration not stated)', 'GIM-1 protein (Pseudomonas aeruginosa)', 'class 1');

###

# experiment notes: Inhibition of Klebsiella pneumoniae 6His-tagged NDM1 (G36 to R280 residues) expressed in Escherichia coli BL21 Star(DE3) pLysS using imipenem as substrate preincubated for 5 mins followed by substrate addition by spectrophotometric analysis
# conditions used: read-out: IC50
Returns: string. Value is true if measured IC50 is below 60 µM, and false if it is greater than or equal to it.

INSERT INTO results (molecule, assigned_class) VALUES
  ('CC(=O)SCC(CCCCc1ccccc1)P(=O)(O)O (centres undefined)', 'true'),
  ('CC(=O)SCC(CCc1ccccc1)P(=O)(O)O (centres undefined)', 'true'),
  ('O=P(O)(O)C(CO)CCCCc1ccccc1 (centres undefined)', 'false'),
  ('O=P(O)(O)C(CS)CCCc1ccccc1 (centres undefined)', 'true'),
  ('O=P(O)(O)C(CO)CCCc1ccccc1 (centres undefined)', 'false'),
  ('CC(=O)SCC(CCCc1ccccc1)c1nnn[nH]1 (centres undefined)', 'false'),
  ('CCOP(=O)(OCC)C(CS)CCc1ccccc1 (centres undefined)', 'true'),
  ('O=C(O)C(CS)CCCCc1ccccc1 (centres undefined)', 'true'),
  ('O=P(O)(O)C(CS)CCCCc1ccccc1 (centres undefined)', 'true'),
  ('SCC(CCCc1ccccc1)c1nnn[nH]1 (centres undefined)', 'true');

###

# experiment notes: Inhibition of Klebsiella pneumoniae 6His-tagged NDM1 (G36 to R280 residues) expressed in Escherichia coli BL21 Star(DE3) pLysS using imipenem as substrate preincubated for 5 mins followed by substrate addition by spectrophotometric analysis
# conditions used: read-out: IC50
pIC50: −log10 of the molar value.
Binary call on pIC50: MET from 5 upward, NOT MET beneath that.

INSERT INTO measurements (compound, assigned_class) VALUES
  ('O=P(O)(O)C(CS)CCc1ccccc1 (stereo not given)', 'MET'),
  ('CC(=O)SCC(Cc1ccccc1)c1nnn[nH]1 (stereo not given)', 'NOT MET'),
  ('CC(=O)SCC(CCCc1ccccc1)P(=O)(O)O (stereo not given)', 'MET'),
  ('CCOP(=O)(OCC)C(CS)CCCc1ccccc1 (stereo not given)', 'MET');

###

# test target: Beta-lactamase VIM-2 (Pseudomonas aeruginosa) (UniProt Q9K2N0)
# experiment notes: Inhibition of Pseudomonas aeruginosa 301-5473 VIM-2 expressed in Escherichia coli SNO3 whole cells using nitrocefin as substrate at 250 uM preincubated for 20 mins followed by substrate addition measured every min up to 60 mins by spectrophotometric analysis relative to control
The source made the active and inactive calls. The rule behind the calls is not given here.
endpoint label: inhibition

INSERT INTO results (molecule, endpoint_label, result) VALUES
  ('O=P(O)(O)C(CO)CCCCc1ccccc1 (centres undefined)', 'inhibition', '88%'),
  ('CC(=O)SCC(Cc1ccccc1)c1nnn[nH]1 (centres undefined)', 'inhibition', '76%'),
  ('CC(=O)SCC(CCCc1ccccc1)P(=O)(O)O (centres undefined)', 'inhibition', '95%'),
  ('CCOP(=O)(OCC)C(CCCCc1ccccc1)CSC(C)=O (centres undefined)', 'inhibition', '12%'),
  ('CCOP(=O)(OCC)C(CCc1ccccc1)CSC(C)=O (centres undefined)', 'inhibition', '17%'),
  ('CCOP(=O)(OCC)C(CS)CCCc1ccccc1 (centres undefined)', 'inhibition', '79%'),
  ('O=P(O)(O)C(CO)CCc1ccccc1 (centres undefined)', 'inhibition', '61%'),
  ('SCC(CCCc1ccccc1)c1nnn[nH]1 (centres undefined)', 'inhibition', '67%'),
  ('O=P(O)(O)C(CO)CCCc1ccccc1 (centres undefined)', 'inhibition', '66%'),
  ('CCOP(=O)(OCC)C(CS)CCc1ccccc1 (centres undefined)', 'inhibition', '78%'),
  ('O=P(O)(O)C(CS)CCCc1ccccc1 (centres undefined)', 'inhibition', '95%'),
  ('CCOP(=O)(OCC)C(CO)CCCCc1ccccc1 (centres undefined)', 'inhibition', 'inactive'),
  ('O=P(O)(O)C(CS)CCCCc1ccccc1 (centres undefined)', 'inhibition', '94%'),
  ('CCOP(=O)(OCC)C(CO)CCCc1ccccc1 (centres undefined)', 'inhibition', 'inactive');

###

inhibition for assorted compounds
# test target: GIM-1 protein (Pseudomonas aeruginosa) (UniProt Q704V1)
# experiment notes: Inhibition of Pseudomonas aeruginosa GIM-1 expressed in Escherichia coli SNO3 whole cells using nitrocefin as substrate at 250 uM preincubated for 20 mins followed by substrate addition measured every min up to 60 mins by spectrophotometric analysis relative to control
endpoint label: inhibition (%)

INSERT INTO results (compound, measured_number) VALUES
  ('CC(=O)SCC(CCCCc1ccccc1)P(=O)(O)O (stereo not drawn)', 50),
  ('CC(=O)SCC(CCc1ccccc1)P(=O)(O)O (stereo not drawn)', 40),
  ('CCOP(=O)(OCC)C(CCc1ccccc1)CSC(C)=O (stereo not drawn)', 25),
  ('CCOP(=O)(OCC)C(CCCCc1ccccc1)CSC(C)=O (stereo not drawn)', 25),
  ('CCOP(=O)(OCC)C(CS)CCCc1ccccc1 (stereo not drawn)', 48),
  ('O=P(O)(O)C(CS)CCCCc1ccccc1 (stereo not drawn)', 31),
  ('O=P(O)(O)C(CS)CCc1ccccc1 (stereo not drawn)', 37),
  ('CC(=O)SCC(CCCc1ccccc1)P(=O)(O)O (stereo not drawn)', 37),
  ('c1ccc(CCCC(CSC2CCCCC2)c2nnn[nH]2)cc1 (stereo not drawn)', 8),
  ('O=P(O)(O)C(CO)CCCCc1ccccc1 (stereo not drawn)', 14),
  ('CCOP(=O)(OCC)C(CO)CCCCc1ccccc1 (stereo not drawn)', 4),
  ('O=P(O)(O)C(CO)CCc1ccccc1 (stereo not drawn)', 23),
  ('SCC(CCCc1ccccc1)c1nnn[nH]1 (stereo not drawn)', 25);

###

# System: Klebsiella pneumoniae
# experiment notes: Inhibition of Klebsiella pneumoniae NDM1 expressed in Escherichia coli SNO3 whole cells using imipenem as substrate at 250 uM preincubated for 20 mins followed by substrate addition measured every min up to 60 mins by spectrophotometric analysis relative to control
Active and inactive are the calls of the source. The rule behind the calls is not given here.
endpoint label: inhibition

INSERT INTO results (compound, result) VALUES
  ('CCOP(=O)(OCC)C(CCCCc1ccccc1)CSC(C)=O (configuration not stated)', 'inactive'),
  ('SCC(CCCc1ccccc1)c1nnn[nH]1 (configuration not stated)', '16%'),
  ('O=P(O)(O)C(CS)CCCCc1ccccc1 (configuration not stated)', '42%'),
  ('CCOP(=O)(OCC)C(CS)CCCc1ccccc1 (configuration not stated)', '62%'),
  ('CCOP(=O)(OCC)C(CCCc1ccccc1)CSC(C)=O (configuration not stated)', 'inactive'),
  ('CC(=O)SCC(CCc1ccccc1)P(=O)(O)O (configuration not stated)', '39%'),
  ('O=P(O)(O)C(CS)CCc1ccccc1 (configuration not stated)', '42%');

###

# test target: Beta-lactamase VIM-2 (Pseudomonas aeruginosa)
# experiment notes: Inhibition of Pseudomonas aeruginosa VIM-2 expressed in Escherichia coli NCB326-1B2 using nitrocefin as substrate after 5 mins by spectrophotometric analysis
endpoint label: IC50

INSERT INTO measurements (molecule, endpoint_label, result) VALUES
  ('O=C(O)C(CS)CCCCc1ccccc1 (stereo unspecified)', 'IC50', '1100 nM');

###

# test target: GIM-1 protein (Pseudomonas aeruginosa)
# experiment notes: Inhibition of Pseudomonas aeruginosa GIM-1 expressed in Escherichia coli SNO3 whole cells using nitrocefin as substrate at 250 uM preincubated for 20 mins followed by substrate addition measured every min up to 60 mins by spectrophotometric analysis relative to control
endpoint label: inhibition

INSERT INTO assay_data (molecule, result) VALUES
  ('CCOP(=O)(OCC)C(CCCc1ccccc1)CSC(C)=O (configuration not stated)', '21%'),
  ('O=P(O)(O)C(CS)CCCc1ccccc1 (configuration not stated)', '46%'),
  ('CCOP(=O)(OCC)C(CS)CCc1ccccc1 (configuration not stated)', '64%'),
  ('CC(=O)SCC(CCCc1ccccc1)c1nnn[nH]1 (configuration not stated)', '20%'),
  ('O=P(O)(O)C(CO)CCCc1ccccc1 (configuration not stated)', '16%'),
  ('CC(=O)SCC(Cc1ccccc1)c1nnn[nH]1 (configuration not stated)', '55%');
